GI50 values by entry
System: PC-3
Assay: NCI tumour cell line growth inhibition, 48 h
Active and inactive are the calls of the source. Cut-off read from the data, not from the text of the source: active = GI50 up to about 1.1 µM and inactive = higher.
measured.endpoint: GI50

# compound, target.or.system, measured.endpoint, test.value
rows = [
    ("c1ccc2c(c1)Sc1ccccc1N2CC1CN2CCC1CC2 (stereo not drawn)", "PC-3", "GI50", "5.35 µM (inactive)"),
    ("COc1ccc(/C=N/NC(=O)c2cnc3[nH]c(=O)n(C)c(=O)c3c2)cc1", "PC-3", "GI50", "> 100 µM (inactive)"),
    ("CC(=O)Nc1ccc(-c2nc3ccccc3s2)cc1C", "PC-3", "GI50", "29 µM (inactive)"),
]

====

Test system: TK-10
Test: NCI tumour cell line growth inhibition, 48 h
The source made the active and inactive calls. Cut-off read from the data, not from the text of the source: active = GI50 up to about 1.1 µM and inactive = higher.
# GI50 listing for each entry below

# compound, GI50
data = [
    ("O=C1N=C2SC=C(NC(=S)Nc3ccccc3)N2NC12c1ccccc1-c1ccccc12", "> 10 µM (inactive)"),
    ("COC(=O)/C=C1/CCC(C)(C(=O)NS(=O)(=O)c2ccc(C)cc2)C1(C)C (configuration not stated)", "> 100 µM (inactive)"),
    ("CC1(C)C2CC(=O)C1(C)C(O)C2Br (configuration not stated)", "> 100 µM (inactive)"),
    ("COc1ccc(/C=N/NC(=O)c2cnc3[nH]c(=O)n(C)c(=O)c3c2)cc1", "46.5 µM (inactive)"),
    ("Cc1n[nH]c(=O)n1/N=C/c1ccc([N+](=O)[O-])cc1", "> 100 µM (inactive)"),
    ("O=C1CCC2(c3ccc(Cl)cc3)Nc3ncccc3N12 (configuration not stated)", "> 100 µM (inactive)"),
    ("Nc1nc(Cl)cc(NCCCCCCNc2cc(Cl)nc(N)n2)n1", "> 100 µM (inactive)"),
    ("Cn1cc(NC(=O)c2cc(NC(=O)CCCCCCCCCC(=O)Nc3cc(C(=O)Nc4cc(C(=O)NCCC(=N)N)n(C)c4)n(C)c3)cn2C)cc1C(=O)NCCC(=N)N", "22.7 µM (inactive)"),
    ("CC1=C2NCN(C)N=C2C(C#N)(C#N)C1(C#N)C#N", "16.4 µM (inactive)"),
    ("O=C1Oc2cc3c(c4cccc1c24)OCN(c1ccccc1)C3", "> 100 µM (inactive)"),
    ("COc1ccc(-c2cc(=O)c3ccc(O)cc3o2)c(OC)c1OC", "78.3 µM (inactive)"),
    ("C#CCSc1nc(N)c2ncn(C3OC(CO)C(O)C3O)c2n1 (configuration not stated)", "> 100 µM (inactive)"),
    ("COC(=O)C1=C(C(=O)OC)C2(C3C(SC)=CC(C)(C)CC3S1)N(Cc1ccccc1)CCN2Cc1ccccc1 (configuration not stated)", "> 100 µM (inactive)"),
    ("COC(=O)Cc1ccc2c(cnn2-c2ccccc2)c1OC", "> 10 µM (inactive)"),
    ("C/C(=N\\NC(N)=S)c1ccc2c(c1)OCO2", "> 100 µM (inactive)"),
    ("CN1C(=O)C(c2c[nH]c3ccccc23)N(C)C(=O)C1c1c[nH]c2ccccc12 (configuration not stated)", "> 100 µM (inactive)"),
    ("CN(C)c1ccc(/C=c2/sc3nc(=O)c(-c4ccccc4NC(=O)C(F)(F)F)nn3c2=O)cc1", "> 100 µM (inactive)"),
    ("Cc1nc(Cc2n[nH]c(C)n2)n[nH]1", "> 100 µM (inactive)"),
    ("O=c1nc2n(cc1/C=C\\Br)C1CC(O)C(CO2)O1 (configuration not stated)", "> 100 µM (inactive)"),
    ("CNC(=O)OCc1nc(SSc2nc(COC(=O)NC)c(COC(=O)NC)n2C)n(C)c1COC(=O)NC", "> 100 µM (inactive)"),
    ("CC1CN=C(Nc2cccc(F)c2)S1 (configuration not stated)", "> 100 µM (inactive)"),
    ("CC(C)(C)N/N=N/c1cn(C2OC(CO)C(O)C2O)c(=O)[nH]c1=O (configuration not stated)", "> 100 µM (inactive)"),
]
